Ref: PubChem BioAssay (NCI)

- System: RXF 393 renal
- procedure.details: NCI tumour cell line growth inhibition, 48 h
measured.parameter: log10(TGI) (log10 of the value in µM)

1. COc1cc(/C=C2\CCC/C(=C\c3cc(CN4CCCC4)c(O)c(OC)c3)C2=O)cc(CN2CCCC2)c1O ... 0.75
2. CC/C(Cl)=N\OC(=O)Nc1ccc(F)c(Cl)c1 ... 1.54
3. CCN1CCN(Cc2ccc(NC(=O)Nc3nc(-c4cc(OC)c(OC)c(OC)c4)cs3)cc2C(F)(F)F)CC1 ... 0.45
4. CC1(C)CC[C@]23CC[C@]4(C)[C@H](CC[C@@H]5[C@@]6(C)CCCNC(C)(C)[C@@H]6CC[C@]54C)[C@H]2[C@H]1OC3 ... 0.47
5. CCN1C(=O)/C(=c2\sc3n(c2=O)C2C(NN=3)N(CC)C(=O)N2CC)c2ccccc21 (stereo not given) ... -0.09
6. CCCCCCCCCN=C(N)c1ccc(N2CCN(c3ccc(C(N)=NCCCCCCCCC)cc3)CC2)cc1 ... 0.48
7. CCOC(=O)c1c2ccccc2n2c(=O)n(-c3ccc(OC)cc3)nnc12 ... 1.64
8. CC1(C=O)CC(CCc2ccccc2)NC1Cc1ccc(O)cc1 (stereo not given) ... 1.49
9. CS(=O)(=O)N1CCC(Nc2ncc(C(=O)c3c(F)cccc3F)c(N)n2)CC1 ... 1.25
10. Cc1ccc(C(=O)NC2C(=O)NC(C(C)C)C(=O)N3CCCC3C(=O)N(C)CC(=O)N(C)C(C(C)C)C(=O)OC2C)c2c1Oc1c(c(C(=O)NC3C(=O)NC(C(C)C)C(=O)N4CCCC4C(=O)N(C)CC(=O)N(C)C(C(C)C)C(=O)OC3C)c3nc(-c4ccccc4)c(=O)oc3c1C)N2 (stereo not given) ... -2.04
11. CCN1CCN(Cc2ccc(Nc3ncc(F)c(-c4cc(F)c5nc(C)n(C(C)C)c5c4)n3)nc2)CC1 ... 0.92
12. CC(=O)OC1C(O)C(C)OC(OC2C(OC(=O)C3CCC4C(C3)OC3(CC(OC(=O)/C=C/c5ccccc5)C(C)CO3)C43CO3)OC(C)C(O)C2OC(C)=O)C1O (stereo not given) ... -0.92
